Numbers sourced from ChEMBL document CHEMBL3611971.

- tgt: Acetylcholinesterase (Electrophorus electricus)
- Sequence (O42275 whole entry): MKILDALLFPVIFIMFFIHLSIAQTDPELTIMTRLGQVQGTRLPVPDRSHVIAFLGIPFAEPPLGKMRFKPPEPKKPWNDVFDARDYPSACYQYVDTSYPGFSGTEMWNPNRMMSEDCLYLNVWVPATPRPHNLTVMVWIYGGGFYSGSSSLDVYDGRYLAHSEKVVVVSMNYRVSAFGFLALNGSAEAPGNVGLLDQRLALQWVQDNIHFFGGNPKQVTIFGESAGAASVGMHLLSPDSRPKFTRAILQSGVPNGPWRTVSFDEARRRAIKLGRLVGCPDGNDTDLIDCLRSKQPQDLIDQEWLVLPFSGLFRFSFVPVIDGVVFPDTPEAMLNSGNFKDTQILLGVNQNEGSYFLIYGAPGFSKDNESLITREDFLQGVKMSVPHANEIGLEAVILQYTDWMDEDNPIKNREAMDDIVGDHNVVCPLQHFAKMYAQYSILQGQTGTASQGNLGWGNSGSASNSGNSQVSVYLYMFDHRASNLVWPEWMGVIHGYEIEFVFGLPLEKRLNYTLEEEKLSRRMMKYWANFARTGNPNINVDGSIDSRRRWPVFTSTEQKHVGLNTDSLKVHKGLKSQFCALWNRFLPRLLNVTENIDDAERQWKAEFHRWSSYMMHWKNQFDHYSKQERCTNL
pIC50: −log10 of the molar value.
I would appreciate it if you labelled entries Met when pIC50 is 6 or higher, otherwise Not met.

Here are 10 compounds together with their reported answers.
compound	qualitative-label
COc1ccc(/C=C/C(=O)SSC(=O)/C=C/c2ccc(OC)cc2OC)c(OC)c1	Met
Fc1cccc(/C=C/CSSC/C=C/c2cccc(F)c2)c1	Not met
O=C(/C=C/c1ccc(Cl)cc1)SSC(=O)/C=C/c1ccc(Cl)cc1	Met
COc1ccc(/C=C/CSSC/C=C/c2ccc(OC)cc2)cc1	Not met
COc1ccc(/C=C/C(=O)SSC(=O)/C=C/c2ccc(OC)cc2)cc1	Met
COc1cc(/C=C/C(=O)SSC(=O)/C=C/c2ccc(O)c(OC)c2)ccc1O	Met
Clc1cccc(/C=C/CSSC/C=C/c2cccc(Cl)c2)c1	Not met
O=C(/C=C/c1ccc(O)cc1)SSC(=O)/C=C/c1ccc(O)cc1	Met
Brc1ccc(/C=C/CSSC/C=C/c2ccc(Br)cc2)cc1	Not met
Fc1ccccc1/C=C/CSSC/C=C/c1ccccc1F	Not met

Shifting focus to the compound that follows.
In: Please check the record Fc1cccc(F)c1/C=C/CSSC/C=C/c1c(F)cccc1F and state if its pIC50 is at or above 6.
Out: Not met

* * *

- procedure-details: Cytotoxicity against HEK293 cells assessed as cell viability at 100 uM after 48 hrs by MTT assay relative to control
- Assay type: cell-based
- condition-set: human, read-out: Activity
Parameter: viability at 48 h, 100 µM. Scope: all listed entries.
A number alone suffices; assume %.

compound	viability at 48 h, 100 µM (%)
COc1ccc(/C=C/C(=O)SSC(=O)/C=C/c2ccc(OC)c(OC)c2)cc1OC	88.6

Please look at the following molecule next.
In: Tell me measured viability at 48 h, 100 µM for COc1cc(/C=C/C(=O)SSC(=O)/C=C/c2ccc(O)c(OC)c2)ccc1O please.
Out: 80.9

* * *

- procedure-details: Cytotoxicity against HEK293 cells assessed as cell viability at 1 uM after 48 hrs by MTT assay relative to control
- Assay type: cell-based
- condition-set: human, read-out: Activity
Parameter: viability at 48 h, 1 µM. Scope: all listed entries.
A number alone suffices; assume %.

compound	obs-value
COc1ccc(/C=C/C(=O)SSC(=O)/C=C/c2ccc(OC)c(OC)c2)cc1OC	96.1

In: Tell me measured viability at 48 h, 1 µM for COc1cc(/C=C/C(=O)SSC(=O)/C=C/c2ccc(O)c(OC)c2)ccc1O please.
Out: 96.5

* * *

- procedure-details: Cytotoxicity against HEK293 cells assessed as cell viability at 0.1 uM after 48 hrs by MTT assay relative to control
- Format: cell-based
- condition-set: human, read-out: Activity
Parameter: viability at 48 h, 0.1 µM. Scope: all listed entries.
A number alone suffices; assume %.

compound	quantity-unit	viability at 48 h, 0.1 µM
COc1cc(/C=C/C(=O)SSC(=O)/C=C/c2ccc(O)c(OC)c2)ccc1O	%	97.3

In: Tell me measured viability at 48 h, 0.1 µM for COc1ccc(/C=C/C(=O)SSC(=O)/C=C/c2ccc(OC)c(OC)c2)cc1OC please.
Out: 98.9

* * *

- procedure-details: Cytotoxicity against HEK293 cells assessed as cell viability at 50 uM after 48 hrs by MTT assay relative to control
- Type: cell-based
- condition-set: human, read-out: Activity
Parameter: viability at 48 h, 50 µM. Scope: all listed entries.
A number alone suffices; assume %.

compound	quantity-unit	viability at 48 h, 50 µM
COc1cc(/C=C/C(=O)SSC(=O)/C=C/c2ccc(O)c(OC)c2)ccc1O	%	90.1

Please look at the following compound next.
In: Tell me measured viability at 48 h, 50 µM for COc1ccc(/C=C/C(=O)SSC(=O)/C=C/c2ccc(OC)c(OC)c2)cc1OC please.
Out: 92.8

* * *

- tgt: UniProtKB P05067
- condition-set: at 25 µM
- Description: Inhibition of self-induced amyloid beta (1 to 42) (unknown origin) aggregation at 25 uM after 48 hrs by thioflavin-T-based fluorescence assay relative to control
recorded-metric: inhibition (%)
A number alone suffices; assume %.

compound	quantity-unit	obs-value
O=C(/C=C/c1ccc(F)cc1)SSC(=O)/C=C/c1ccc(F)cc1	%	62.4
Fc1cccc(F)c1/C=C/CSSC/C=C/c1c(F)cccc1F	%	39.5
O=C(/C=C/c1cccc(Br)c1)SSC(=O)/C=C/c1cccc(Br)c1	%	68.7
COc1ccc(/C=C/C(=O)SSC(=O)/C=C/c2ccc(OC)cc2)cc1	%	63.5
COc1cc(/C=C/CSSC/C=C/c2ccc(O)c(OC)c2)ccc1O	%	66.9
Brc1ccc(/C=C/CSSC/C=C/c2ccc(Br)cc2)cc1	%	37.5
O=C(/C=C/c1ccc(Cl)cc1)SSC(=O)/C=C/c1ccc(Cl)cc1	%	65.6
O=C(/C=C/c1ccc(O)cc1)SSC(=O)/C=C/c1ccc(O)cc1	%	66.4
COc1ccc(/C=C/CSSC/C=C/c2ccc(OC)c(OC)c2)cc1OC	%	61.2
COc1ccc(/C=C/C(=O)SSC(=O)/C=C/c2ccc(OC)c(OC)c2)cc1OC	%	74.2

Please look at the following molecule next.
In: Tell me measured inhibition for Oc1ccc(/C=C/CSSC/C=C/c2ccc(O)cc2)cc1 please.
Out: 53

* * *

- procedure-details: Cytotoxicity against HEK293 cells assessed as cell viability at 25 uM after 48 hrs by MTT assay relative to control
- Assay type: cell-based
- condition-set: human, read-out: Activity
recorded-metric: viability at 48 h, 25 µM (%)
A number alone suffices; assume %.

compound	recorded-metric	obs-value
COc1ccc(/C=C/C(=O)SSC(=O)/C=C/c2ccc(OC)c(OC)c2)cc1OC	viability at 48 h, 25 µM	95.7

In: Tell me measured viability at 48 h, 25 µM for COc1cc(/C=C/C(=O)SSC(=O)/C=C/c2ccc(O)c(OC)c2)ccc1O please.
Out: 92.3

* * *

- tgt: UniProt:P81908
- procedure-details: Inhibition of equine serum BuChE using DTNB as substrate incubated for 5 mins prior to substrate addition measured after 2 mins by Ellman's method
Parameter: pIC50. Scope: all listed entries.
Value format note: pIC50 is -log10 of concentration (mol/L); just state the number.

compound	pIC50
Brc1ccc(/C=C/CSSC/C=C/c2ccc(Br)cc2)cc1	4.14

In: Tell me measured pIC50 for O=C(/C=C/c1ccc(Cl)cc1)SSC(=O)/C=C/c1ccc(Cl)cc1 please.
Out: 4.45

In: Tell me measured pIC50 for O=C(/C=C/c1ccc(F)cc1)SSC(=O)/C=C/c1ccc(F)cc1 please.
Out: 4.49

In: Tell me measured pIC50 for COc1ccc(/C=C/C(=O)SSC(=O)/C=C/c2ccc(OC)cc2)cc1 please.
Out: 4.80

In: Tell me measured pIC50 for COc1ccc(/C=C/C(=O)SSC(=O)/C=C/c2ccc(OC)cc2OC)c(OC)c1 please.
Out: 4.83

In: Tell me measured pIC50 for O=C(/C=C/c1ccc(Br)cc1)SSC(=O)/C=C/c1ccc(Br)cc1 please.
Out: 4.43

In: Tell me measured pIC50 for Oc1ccc(/C=C/CSSC/C=C/c2ccc(O)cc2)cc1 please.
Out: 4.20

In: Tell me measured pIC50 for Clc1ccc(/C=C/CSSC/C=C/c2ccc(Cl)cc2)cc1 please.
Out: 4.03

* * *

The following compounds each carry a recorded IC50 for Acetylcholinesterase (Electrophorus electricus).
A number alone suffices; assume nM.

The following compounds have reported results that may help.
compound	IC50, nM
COc1cc(/C=C/CSSC/C=C/c2ccc(O)c(OC)c2)ccc1O	1450
Clc1ccc(/C=C/CSSC/C=C/c2ccc(Cl)cc2)cc1	37000
COc1ccc(/C=C/C(=O)SSC(=O)/C=C/c2ccc(OC)c(OC)c2)cc1OC	56

Please look at the following compound next.
In: Under Acetylcholinesterase (Electrophorus electricus), report IC50 for O=C(/C=C/c1ccc(F)cc1)SSC(=O)/C=C/c1ccc(F)cc1
Out: 450

* * *

Parameter: IC50. Scope: all listed entries.
- tgt: Cholinesterase (Equus caballus)
- Sequence (P81908 whole entry): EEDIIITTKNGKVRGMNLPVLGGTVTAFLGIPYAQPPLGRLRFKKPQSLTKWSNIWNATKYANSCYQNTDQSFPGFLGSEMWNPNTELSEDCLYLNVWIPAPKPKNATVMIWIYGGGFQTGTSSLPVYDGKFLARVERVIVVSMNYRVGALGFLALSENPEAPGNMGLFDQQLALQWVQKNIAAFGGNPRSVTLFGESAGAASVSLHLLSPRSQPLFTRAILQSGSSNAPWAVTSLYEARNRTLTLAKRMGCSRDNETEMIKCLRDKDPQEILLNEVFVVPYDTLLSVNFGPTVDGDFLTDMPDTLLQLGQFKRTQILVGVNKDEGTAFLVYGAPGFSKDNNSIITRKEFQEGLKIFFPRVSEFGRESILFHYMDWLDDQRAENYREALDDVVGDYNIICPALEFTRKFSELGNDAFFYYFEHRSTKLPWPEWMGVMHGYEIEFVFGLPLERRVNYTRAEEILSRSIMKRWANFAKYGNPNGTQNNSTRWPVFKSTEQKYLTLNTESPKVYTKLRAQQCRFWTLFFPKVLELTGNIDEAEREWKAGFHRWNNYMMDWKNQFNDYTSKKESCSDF
- procedure-details: Inhibition of equine serum BuChE using DTNB as substrate incubated for 5 mins prior to substrate addition measured after 2 mins by Ellman's method
A number alone suffices; assume µM.

compound	recorded-metric	quantity-unit	obs-value
O=C(/C=C/c1cccc(Br)c1)SSC(=O)/C=C/c1cccc(Br)c1	IC50	µM	38.7
COc1cc(/C=C/CSSC/C=C/c2ccc(O)c(OC)c2)ccc1O	IC50	µM	57.9

In: Tell me measured IC50 for O=C(/C=C/c1ccc(O)cc1)SSC(=O)/C=C/c1ccc(O)cc1 please.
Out: 24.5

* * *

- tgt: Amyloid-beta precursor protein (Homo sapiens) (UniProt P05067)
- Sequence (P05067 whole entry): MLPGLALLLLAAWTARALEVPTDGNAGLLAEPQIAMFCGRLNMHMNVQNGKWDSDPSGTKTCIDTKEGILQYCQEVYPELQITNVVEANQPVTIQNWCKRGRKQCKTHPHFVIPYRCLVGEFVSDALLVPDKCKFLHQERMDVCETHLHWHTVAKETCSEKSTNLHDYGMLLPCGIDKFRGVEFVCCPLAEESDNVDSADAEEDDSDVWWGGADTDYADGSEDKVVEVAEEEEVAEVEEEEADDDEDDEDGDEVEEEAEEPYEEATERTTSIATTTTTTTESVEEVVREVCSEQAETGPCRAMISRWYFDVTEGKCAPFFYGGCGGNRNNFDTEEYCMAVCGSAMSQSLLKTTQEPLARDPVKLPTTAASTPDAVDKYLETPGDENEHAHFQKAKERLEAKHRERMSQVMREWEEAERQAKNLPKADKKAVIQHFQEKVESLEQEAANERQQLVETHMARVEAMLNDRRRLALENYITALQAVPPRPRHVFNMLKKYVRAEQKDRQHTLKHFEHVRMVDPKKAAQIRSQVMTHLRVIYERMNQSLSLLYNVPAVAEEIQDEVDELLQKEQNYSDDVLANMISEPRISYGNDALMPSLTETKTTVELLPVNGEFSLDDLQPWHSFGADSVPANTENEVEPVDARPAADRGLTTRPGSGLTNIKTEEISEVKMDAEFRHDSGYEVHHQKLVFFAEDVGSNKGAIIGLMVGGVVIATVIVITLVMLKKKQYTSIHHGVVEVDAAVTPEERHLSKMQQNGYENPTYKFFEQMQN
- condition-set: at 25 µM
I would appreciate it if you labelled entries rule met when inhibition is 50% or higher, otherwise rule not met.

Here are 8 compounds together with their reported answers.
compound	tgt	qualitative-label
Clc1cccc(/C=C/CSSC/C=C/c2cccc(Cl)c2)c1	Amyloid-beta precursor protein (Homo sapiens) (UniProt P05067)	rule met
Fc1cccc(/C=C/CSSC/C=C/c2cccc(F)c2)c1	Amyloid-beta precursor protein (Homo sapiens) (UniProt P05067)	rule not met
Brc1cccc(/C=C/CSSC/C=C/c2cccc(Br)c2)c1	Amyloid-beta precursor protein (Homo sapiens) (UniProt P05067)	rule not met
COc1ccc(/C=C/CSSC/C=C/c2ccc(OC)cc2)cc1	Amyloid-beta precursor protein (Homo sapiens) (UniProt P05067)	rule met
COc1ccc(/C=C/C(=O)SSC(=O)/C=C/c2ccc(OC)cc2OC)c(OC)c1	Amyloid-beta precursor protein (Homo sapiens) (UniProt P05067)	rule met
COc1cc(/C=C/C(=O)SSC(=O)/C=C/c2ccc(O)c(OC)c2)ccc1O	Amyloid-beta precursor protein (Homo sapiens) (UniProt P05067)	rule met
Fc1ccccc1/C=C/CSSC/C=C/c1ccccc1F	Amyloid-beta precursor protein (Homo sapiens) (UniProt P05067)	rule not met
Clc1ccc(/C=C/CSSC/C=C/c2ccc(Cl)cc2)cc1	Amyloid-beta precursor protein (Homo sapiens) (UniProt P05067)	rule not met

In: Please check the record O=C(/C=C/c1ccc(Br)cc1)SSC(=O)/C=C/c1ccc(Br)cc1 and state if its inhibition is at or above 50%.
Out: rule met

In: Please check the record Clc1cc(Cl)cc(/C=C/CSSC/C=C/c2cc(Cl)cc(Cl)c2)c1 and state if its inhibition is at or above 50%.
Out: rule not met
